Run Description: Acute toxicity test
Format: in vivo, Wistar-strain male rats
Experimental Setup: in vivo; oral; rat
Text: Each of carboxamide compounds represented by the formula (1), which is the active ingredient contained in pharmaceutical composition according to the present invention, was suspended in 5%-CMC-Na aqueous solution and administered orally to Wistar-strain male rats of 7 week age (one test group consisting of 6 rats) so as to observe the acute toxicity of each of the carboxamide compounds. Thus, LD50 value of Test compound No. 2 is considered to higher than 2 kg/kg. […]
Metric: LD50

Query :: Item CCOP(=O)(Cc1ccc(C(=O)N(Cc2ccccc2)c2ccc(Cl)cc2)cc1)OCC has what recorded LD50?
Result :: > 2000 mg/kg

* * *

Test system: Triton WR-1339-induced hyperlipidemia in rat
Run Description: antilipotropic effect in Triton WR-1339-induced hyperlipidemia in rat
Type: in vivo, Wistar-strain male rats
Experimental Setup: 24 hours after Triton WR-1339 (400 mg/kg, tail vein), 50 mg/kg oral, vs control, read-out: lowering ratio of serum triglycerides, 24 hours after Triton WR-1339
inhibition in vivo at 50 mg/kg below 40% gives No; inhibition in vivo at 50 mg/kg at or above it gives Yes.

Reference set, count: 10
                                   compound  cat
0  CCOP(=O)(Cc1ccc(C(=O)N(Cc2ccc(Cl)cc2)c2ccc(Cl)c(Cl)c2)cc1)OCC [compound 17]  Yes
1  CCOP(=O)(Cc1ccc(C(=O)Nc2ccc(I)cc2)cc1)OCC [compound 16]  Yes
2  CCOP(=O)(Cc1ccc(C(=O)Nc2ccc(C#N)cc2)cc1)OCC [compound 19]  Yes
3  CCOP(=O)(Cc1ccc(C(=O)N(c2ccc(Cl)cc2)C2CCCC2)cc1)OCC [compound 15]   No
4  CCOP(=O)(Cc1ccc(C(=O)Nc2ccc(C)cc2)cc1)OCC [compound 22]   No
5  CCOP(=O)(Cc1ccc(C(=O)Nc2ccc(Br)cc2)cc1)OCC [compound 8]  Yes
6  CCOP(=O)(Cc1ccc(C(=O)Nc2ccc(C(F)(F)F)cc2)cc1)OCC [compound 13]  Yes
7  CCOP(=O)(Cc1ccc(C(=O)Nc2ccc(Cl)c(C(F)(F)F)c2)cc1)OCC [compound 9]   No
8  CCOP(=O)(Cc1ccc(C(=O)N(Cc2ccc(Cl)cc2)c2ccc(Cl)cc2)cc1)OCC [compound 21]  Yes
9  CCC(C)(Oc1ccc(C2(c3ccc(OC(C)(CC)C(=O)O)cc3)CCCCC2)cc1)C(=O)O (centres unmarked) [Clinofibrate, reference compound]   No

Query :: Confirm if inhibition in vivo at 50 mg/kg reported for the compound CCOP(=O)(Cc1ccc(C(=O)N(C)c2ccc(Cl)cc2)cc1)OCC [compound 14] is 40% or above.
Result :: Yes

Query :: Confirm if inhibition in vivo at 50 mg/kg reported for the compound CCOP(=O)(Cc1ccc(C(=O)Nc2ccc(F)cc2)cc1)OCC [compound 20] is 40% or above.
Result :: Yes

* * *

Answer each item with its documented inhibition in vivo at 50 mg/kg.
System: Triton WR-1339-induced hyperlipidemia in rat
Run Description: antilipotropic effect in Triton WR-1339-induced hyperlipidemia in rat
Assay type: in vivo, Wistar-strain male rats
Experimental Setup: 48 hours after Triton WR-1339 (400 mg/kg, tail vein), 50 mg/kg oral, vs control, read-out: lowering ratio of total serum cholesterol, 48 hours after Triton WR-1339
Numbers only, in %.

Examples with answers:
In [3]: df
Out[3]:
                                   compound                             target_entity  measured_value
0  CCOP(=O)(Cc1ccc(C(=O)Nc2ccc(I)cc2)cc1)OCC [compound 16]  Triton WR-1339-induced hyperlipidemia in rat            75.1
1  CCOP(=O)(Cc1ccc(C(=O)N(Cc2ccc(Cl)cc2)c2ccc(Cl)c(Cl)c2)cc1)OCC [compound 17]  Triton WR-1339-induced hyperlipidemia in rat            64.4
2  CC(C)OP(=O)(Cc1ccc(C(=O)NCCc2ccccc2)cc1)OC(C)C [compound 11]  Triton WR-1339-induced hyperlipidemia in rat            32.6
3  CCOP(=O)(Cc1ccc(C(=O)N(c2ccc(Cl)cc2)C2CCCC2)cc1)OCC [compound 15]  Triton WR-1339-induced hyperlipidemia in rat            22.6
4  CCOP(=O)(Cc1ccc(C(=O)Nc2ccc(C#N)cc2)cc1)OCC [compound 19]  Triton WR-1339-induced hyperlipidemia in rat            63.6
5  CCOP(=O)(Cc1ccc(C(=O)Nc2ccc(OC)cc2)cc1)OCC [compound 23]  Triton WR-1339-induced hyperlipidemia in rat            32.5

Provide inhibition in vivo at 50 mg/kg values for the following items, in order.
1. CCOP(=O)(Cc1ccc(C(=O)Nc2ccc(Br)cc2)cc1)OCC [compound 8]
2. CCOP(=O)(Cc1ccc(C(=O)Nc2ccc([N+](=O)[O-])cc2)cc1)OCC [compound 18]
3. CCOP(=O)(Cc1ccc(C(=O)Nc2ccc(Cl)c(C(F)(F)F)c2)cc1)OCC [compound 9]
4. CCOP(=O)(Cc1ccc(C(=O)N(C)c2ccc(Cl)cc2)cc1)OCC [compound 14]
5. CCOP(=O)(Cc1ccc(C(=O)Nc2ccc(C)cc2)cc1)OCC [compound 22]
6. CCOP(=O)(Cc1ccc(C(=O)N(Cc2ccc(Cl)cc2)c2ccc(Cl)cc2)cc1)OCC [compound 21]
7. CCC(C)(Oc1ccc(C2(c3ccc(OC(C)(CC)C(=O)O)cc3)CCCCC2)cc1)C(=O)O (stereo not shown) [Clinofibrate, reference compound]
8. CCOP(=O)(Cc1ccc(C(=O)Nc2ccc(C(F)(F)F)cc2)cc1)OCC [compound 13]

Result ::
[63.6, 37.5, 42.3, 49.4, 29, 52.3, 1.9, 64.4]

Provide inhibition in vivo at 50 mg/kg values for the following items, in order.
1. CCOP(=O)(Cc1ccc(C(=O)N(Cc2ccccc2)c2ccc([N+](=O)[O-])cc2)cc1)OCC [compound 10]
2. CCOP(=O)(Cc1ccc(C(=O)Nc2ccc(F)cc2)cc1)OCC [compound 20]

Result ::
1. 16.1
2. 55.1

* * *

Answer each item with its documented Inhibitory effect to ACAT (inhibitory ratio).
Tested on: acyl-CoA:cholesterol acyltransferase (ACAT)
Run Description: inhibitory effect in the enzymatic activities of acyl-CoA:cholesterol acyltransferase (ACAT)
Type: biochemical
Experimental Setup: 10^-4 M; rat liver microsomes; 2 min, 100 µM
Answers are plain numbers, in %.

Examples with answers:
                                   compound  measured_value
0  CCOP(=O)(Cc1ccc(C(=O)Nc2ccccc2C(=O)O)cc1)OCC            26.0
1  CCOP(=O)(Cc1ccc(C(=O)N(Cc2ccccc2)c2ccccc2)cc1)OCC            87.7
2    CCOP(=O)(Cc1ccc(C(=S)Nc2ccccc2)cc1)OCC            39.4
3  CCOP(=O)(Cc1ccc(C(=O)N(Cc2ccccc2)c2cccc(C(F)(F)F)c2)cc1)OCC            84.8
4  CCOP(=O)(Cc1ccc(C(=O)N(Cc2ccccc2)c2cc(OC)c(OC)c(OC)c2)cc1)OCC            60.5
5  CCOP(=O)(Cc1ccc(C(=O)N(Cc2ccccc2)c2ccc([N+](=O)[O-])cc2)cc1)OCC            69.4

Provide Inhibitory effect to ACAT (inhibitory ratio) values for the following items, in order.
1. CCCCCCNC(=O)c1ccc(C(C)P(=O)(OCC)OCC)cc1 (stereo not drawn)
2. CCOP(=O)(Cc1ccc(C(=O)N(Cc2ccccc2F)c2ccccc2)cc1)OCC
3. CCOP(=O)(Cc1ccc(C(=O)N2CCN(c3ccc(Cl)cc3)CC2)cc1)OCC

Result ::
1. 88.9
2. 84.0
3. 56.6

* * *

Tested on: Triton WR-1339-induced hyperlipidemia in rat
Run Description: antilipotropic effect in Triton WR-1339-induced hyperlipidemia in rat
Assay type: in vivo, Wistar-strain male rats
Experimental Setup: 48 hours after Triton WR-1339 (400 mg/kg, tail vein), 50 mg/kg oral, vs control, read-out: lowering ratio of serum triglycerides, 48 hours after Triton WR-1339
Metric: inhibition in vivo at 50 mg/kg (%)
Numbers only, in %.

Examples with answers:
                                   molecule  measured_value
0  CCOP(=O)(Cc1ccc(C(=O)Nc2ccc([N+](=O)[O-])cc2)cc1)OCC [compound 18]            74.9
1  CCOP(=O)(Cc1ccc(C(=O)N(Cc2ccc(Cl)cc2)c2ccc(Cl)c(Cl)c2)cc1)OCC [compound 17]            94.1

Provide inhibition in vivo at 50 mg/kg values for the following items, in order.
1. CCOP(=O)(Cc1ccc(C(=O)Nc2ccc(I)cc2)cc1)OCC [compound 16]
2. CCOP(=O)(Cc1ccc(C(=O)N(Cc2ccccc2)c2ccc(C(F)(F)F)cc2)cc1)OCC [compound 12]

Result ::
[95.3, 83.9]
